- TARGET_OR_SYSTEM: T1, IL-11Rα as used in the Biacore kinetics of Example 14 (UniProt Q14626 23-363, limits assumed)
- T1 sequence (looked up): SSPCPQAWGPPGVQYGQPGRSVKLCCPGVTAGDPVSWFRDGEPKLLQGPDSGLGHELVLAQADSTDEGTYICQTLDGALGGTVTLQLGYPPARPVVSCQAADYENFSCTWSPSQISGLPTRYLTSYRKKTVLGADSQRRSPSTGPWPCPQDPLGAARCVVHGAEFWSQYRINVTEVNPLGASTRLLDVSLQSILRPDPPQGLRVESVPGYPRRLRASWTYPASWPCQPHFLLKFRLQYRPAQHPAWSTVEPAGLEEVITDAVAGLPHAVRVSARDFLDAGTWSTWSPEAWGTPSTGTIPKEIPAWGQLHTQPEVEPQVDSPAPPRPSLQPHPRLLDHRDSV
- PROTOCOL_DETAILS: SPR (Biacore T200), multi-cycle kinetics, 25 C, HBS-P+ pH 7.4 with 0.1% BSA
READOUT_NAME: kon

{"BINDER": "Humanised BSO-9A7 variant VH3/VL3 (antibody, V domains shown, Variable domains only) VH: QVQLVQSGAEVKKPGASVKVSCKASGYTFTNYWMHWLRQRPGQGLEWIGNIGPSDSKTHYNQKFKDRATLTVDKSTSTAYMELSSLRSEDTAVYYCARGDYVLFTYWGQGTLVTVSS VL: DIVLTQSPATLSLSPGERATLSCRASQSISNNLHWYQQKPGQAPRLLIKYASQSISGIPARFSGSGSGTDFTLTISSLEPEDFAVYFCQQSYSWPLTFGQGTKLEIK", "READOUT_NAME": "kon", "EXPERIMENTAL_RESULT": "208000 M⁻¹ s⁻¹"}
